Please find below pKd data on Fibroblast growth factor 1 (Homo sapiens) compiled from the literature.
Sequence (P05230 whole entry): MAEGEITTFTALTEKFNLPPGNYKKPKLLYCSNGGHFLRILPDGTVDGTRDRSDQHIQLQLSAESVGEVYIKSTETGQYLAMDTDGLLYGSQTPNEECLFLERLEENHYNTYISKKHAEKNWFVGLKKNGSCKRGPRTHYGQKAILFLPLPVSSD
pKd: −log10 of the molar value.

- Compound: "CO[C@H]1O[C@@H](COCC(=O)N(CCOS(=O)(=O)O)CC(=O)NC2CCCCC2)[C@@H](OS(=O)(=O)O)[C@H](OS(=O)(=O)O)[C@H]1OS(=O)(=O)O"
  Study target: "Fibroblast growth factor 1 (Homo sapiens)"
  pKd: 3.52
- Compound: "O=S(=O)(O)OC[C@@H]1O[C@H](O[C@H]2[C@H](OS(=O)(=O)O)[C@H](OS(=O)(=O)O)C(OS(=O)(=O)O)O[C@H]2COS(=O)(=O)O)[C@@H](OS(=O)(=O)O)[C@H](OS(=O)(=O)O)[C@H]1OS(=O)(=O)O (stereo not given in full)"
  Study target: "Fibroblast growth factor 1 (Homo sapiens)"
  pKd: 6.27
- Compound: "O=C(CCCC[C@@H]1SC[C@@H]2NC(=O)N[C@@H]21)NCCCCCC(=O)N[C@H]1O[C@H](CO)[C@@H](O)[C@H](O)[C@@H]1O[C@H]1O[C@H](CO)[C@@H](O)[C@H](O[C@H]2O[C@H](CO)[C@@H](O)[C@H](O[C@H]3O[C@H](CO)[C@@H](O)[C@H](O[C@H]4O[C@H](CO)[C@@H](O)[C@H](O)[C@@H]4O)[C@@H]3O)[C@@H]2O)[C@@H]1O"
  Study target: "Fibroblast growth factor 1 (Homo sapiens)"
  pKd: 9.41
- Compound: "O=C(NC1CCCCC1)C(c1ccccc1)N(Cc1ccccc1)C(=O)C1OC(OS(=O)(=O)O)C(OS(=O)(=O)O)C(OS(=O)(=O)O)C1OS(=O)(=O)O (stereo not given)"
  Study target: "Fibroblast growth factor 1 (Homo sapiens)"
  pKd: 4.20
- Compound: "CCN(CC(=O)NCCO[C@H]1O[C@H](COS(=O)(=O)O)[C@@H](OS(=O)(=O)O)[C@H](OS(=O)(=O)O)[C@@H]1OS(=O)(=O)O)C(=O)CCC(=O)O"
  Study target: "Fibroblast growth factor 1 (Homo sapiens)"
  pKd: 4.37
- Compound: "COC[C@H]1O[C@H](O[C@H]2[C@H](OS(=O)(=O)O)[C@@H](OS(=O)(=O)O)[C@H](OC)O[C@@H]2COS(=O)(=O)O)[C@H](OS(=O)(=O)O)[C@@H](OC)[C@H]1OC"
  Study target: "Fibroblast growth factor 1 (Homo sapiens)"
  pKd: 3.63
- Compound: "O=S(=O)(O)OC[C@@H]1O[C@H](OS(=O)(=O)O)[C@H](OC2O[C@@H](COS(=O)(=O)O)[C@@H](S(=O)(=O)O)[C@H](O[C@H]3O[C@@H](COS(=O)(=O)O)[C@@H](OS(=O)(=O)O)[C@H](OS(=O)(=O)O)[C@H]3OS(=O)(=O)O)[C@H]2OS(=O)(=O)O)[C@@H](OS(=O)(=O)O)[C@@H]1OS(=O)(=O)O (stereo not given in full)"
  Study target: "Fibroblast growth factor 1 (Homo sapiens)"
  pKd: 8.11
- Compound: "O=C(O)c1cc(/N=N/c2ccc(S(=O)(=O)Nc3ccccn3)cc2)ccc1O"
  Study target: "Fibroblast growth factor 1 (Homo sapiens)"
  pKd: 3.22
- Compound: "O=C(CN(CCOS(=O)(=O)O)C(=O)C1OC(OS(=O)(=O)O)C(OS(=O)(=O)O)C(OS(=O)(=O)O)C1OS(=O)(=O)O)NC1CCCCC1 (stereo not given)"
  Study target: "Fibroblast growth factor 1 (Homo sapiens)"
  pKd: 2.63
- Compound: "CCN(CC(=O)NCCO[C@H]1O[C@H](COS(=O)(=O)O)[C@@H](OS(=O)(=O)O)[C@H](OS(=O)(=O)O)[C@@H]1OS(=O)(=O)O)C(=O)CCCCC(=O)O"
  Study target: "Fibroblast growth factor 1 (Homo sapiens)"
  pKd: 4.36
- Compound: "CC(=O)N(CCc1ccccc1)CC(=O)NCCO[C@H]1O[C@H](COS(=O)(=O)O)[C@@H](OS(=O)(=O)O)[C@H](OS(=O)(=O)O)[C@@H]1OS(=O)(=O)O"
  Study target: "Fibroblast growth factor 1 (Homo sapiens)"
  pKd: 4.93
- Compound: "CO[C@H]1O[C@H](CNC(=O)CN(C(C)=O)C2CCCCC2)[C@@H](OS(=O)(=O)O)[C@H](OS(=O)(=O)O)[C@@H]1OS(=O)(=O)O"
  Study target: "Fibroblast growth factor 1 (Homo sapiens)"
  pKd: 3.51
- Compound: "O=C(CN(Cc1ccccc1)C(=O)CO[C@@H]1[C@H](OS(=O)(=O)O)O[C@H](COS(=O)(=O)O)[C@H](OS(=O)(=O)O)[C@H]1OS(=O)(=O)O)NCCO[C@H]1O[C@@H](COS(=O)(=O)O)[C@@H](OS(=O)(=O)O)[C@H](OS(=O)(=O)O)[C@H]1OS(=O)(=O)O"
  Study target: "Fibroblast growth factor 1 (Homo sapiens)"
  pKd: 5.20
- Compound: "CC(C)(CC(=O)N(CCO[C@H]1O[C@@H](COS(=O)(=O)O)[C@@H](OS(=O)(=O)O)[C@H](OS(=O)(=O)O)[C@H]1OS(=O)(=O)O)CC(=O)NC1CCCCC1)CC(=O)N(CCO[C@H]1O[C@@H](COS(=O)(=O)O)[C@@H](OS(=O)(=O)O)[C@H](OS(=O)(=O)O)[C@H]1OS(=O)(=O)O)CC(=O)NC1CCCCC1"
  Study target: "Fibroblast growth factor 1 (Homo sapiens)"
  pKd: 5.00
- Compound: "O=C(CN(Cc1ccccc1)C(=O)C1OC(OS(=O)(=O)O)C(OS(=O)(=O)O)C(OS(=O)(=O)O)C1OS(=O)(=O)O)NCc1ccccc1 (stereo not given)"
  Study target: "Fibroblast growth factor 1 (Homo sapiens)"
  pKd: 3.98
- Compound: "CC(=O)N(CC(=O)NCCO[C@H]1O[C@H](COS(=O)(=O)O)[C@@H](OS(=O)(=O)O)[C@H](OS(=O)(=O)O)[C@@H]1OS(=O)(=O)O)Cc1ccccc1"
  Study target: "Fibroblast growth factor 1 (Homo sapiens)"
  pKd: 4.60
- Compound: "COC1C(OCc2ccccc2)C2COC(O2)C1OS(=O)(=O)O (stereo not given)"
  Study target: "Fibroblast growth factor 1 (Homo sapiens)"
  pKd: 3.51
- Compound: "CO[C@H]1O[C@H](CNC(=O)CN(C(C)=O)c2ccccc2)[C@@H](OS(=O)(=O)O)[C@H](OS(=O)(=O)O)[C@@H]1OS(=O)(=O)O"
  Study target: "Fibroblast growth factor 1 (Homo sapiens)"
  pKd: 3.71
- Compound: "CO[C@H]1O[C@@H](COCC(=O)N(CC(=O)NC2CCCCC2)Cc2ccccc2)[C@@H](OS(=O)(=O)O)[C@H](OS(=O)(=O)O)[C@H]1OS(=O)(=O)O"
  Study target: "Fibroblast growth factor 1 (Homo sapiens)"
  pKd: 3.59
- Compound: "CO[C@H]1O[C@H](CN=[N+]=[N-])[C@@H](OS(=O)(=O)O)[C@H](OS(=O)(=O)O)[C@@H]1OS(=O)(=O)O"
  Study target: "Fibroblast growth factor 1 (Homo sapiens)"
  pKd: 3.46
